tgt: PLK1 (Homo sapiens, UniProt P53350)
Construct: endogenous in cells
Sequence (P53350 whole entry): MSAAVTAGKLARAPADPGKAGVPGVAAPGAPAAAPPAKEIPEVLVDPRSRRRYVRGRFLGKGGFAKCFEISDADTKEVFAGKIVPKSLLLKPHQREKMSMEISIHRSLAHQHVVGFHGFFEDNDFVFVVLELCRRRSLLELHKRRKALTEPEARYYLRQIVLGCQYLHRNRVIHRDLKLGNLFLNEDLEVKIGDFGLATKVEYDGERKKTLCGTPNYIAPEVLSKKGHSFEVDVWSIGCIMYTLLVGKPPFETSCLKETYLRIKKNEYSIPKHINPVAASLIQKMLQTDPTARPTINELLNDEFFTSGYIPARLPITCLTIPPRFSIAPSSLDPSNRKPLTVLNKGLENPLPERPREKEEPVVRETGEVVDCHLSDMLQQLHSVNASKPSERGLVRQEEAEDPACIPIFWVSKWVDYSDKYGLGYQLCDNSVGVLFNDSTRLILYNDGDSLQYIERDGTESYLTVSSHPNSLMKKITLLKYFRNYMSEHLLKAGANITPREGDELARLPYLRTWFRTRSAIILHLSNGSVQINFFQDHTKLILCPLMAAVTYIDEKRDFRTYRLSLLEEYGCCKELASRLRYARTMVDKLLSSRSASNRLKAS
assay.info: Western blot, protein degradation (DC50)
Format: cell-based
measurement.conditions: 24 h; read-out: PLK1 DC50 (24 h)
// DC50 lookup, one value per entry

Some solved entries appear below for comparison.
CC[C@@H]1C(=O)N(C)c2cnc(Nc3ccc(C(=O)NCCOCCNCCCC(=O)Nc4cccc5c4CN(C4CCC(=O)NC4=O)C5=O)cc3OC)nc2N1Cc1ccc(Br)cc1 (stereo partly shown) [UB-180625]; < 0.01 µM
CC[C@@H]1C(=O)N(C)c2cnc(Nc3ccc(C(=O)NCCCNCCCCCCC(=O)Nc4cccc5c4CN(C4CCC(=O)NC4=O)C5=O)cc3OC)nc2N1C1CCCC1 (stereo partly shown) [UB-180631]; 0.01 to 0.1 µM
CC[C@@H]1C(=O)N(C)c2cnc(Nc3ccc(C(=O)NCCOCCOCCOCCNCCC(=O)Nc4cccc5c4CN(C4CCC(=O)NC4=O)C5=O)cc3OC)nc2N1C1CCCC1 (stereo partly shown) [UB-180633]; 0.01 to 0.1 µM

Now for a further compound.
Request: Enter recorded DC50 with PLK1 (Homo sapiens, UniProt P53350) for CC[C@@H]1C(=O)N(C)c2cnc(Nc3ccc(C(=O)NCCCNCCCCCCC(=O)Nc4cccc5c4CN(C4CCC(=O)NC4=O)C5=O)cc3OC)nc2N1Cc1ccc(Br)cc1 (stereo partly shown) [UB-180627] here.
Response: 0.1 to 1 µM

---

Parameter DC50: see the listing below.
tgt: PLK1 (Homo sapiens, UniProt P53350)
Construct: endogenous in cells
assay.info: Western blot, protein degradation (DC50)
Format: cell-based
measurement.conditions: 6 h; read-out: PLK1 DC50 (6 h)

Use these answered entries as a reference point.
CC[C@@H]1c2c(C#N)ncn2-c2cnc(Nc3ccc(C(=O)NCCOCCOCCOCC(=O)Nc4cccc5c4C(=O)N(C4CCC(=O)NC4=O)C5=O)cc3OC)nc2N1Cc1ccc(Br)cc1 (stereo partly drawn) [UB-180594]; > 1000 nM
CC[C@@H]1C(=O)N(C)c2cnc(Nc3ccc(C(=O)NCCOCCOCCOCCC(=O)N[C@H](C(=O)N4C[C@H](O)C[C@H]4C(=O)NCc4ccc(-c5scnc5C)cc4)C(C)(C)C)cc3OC)nc2N1Cc1ccc(Br)cc1 [UB-180602]; > 1000 nM

Request: Identify the reported DC50 for the following entry. O=C1CCC(N2Cc3c(NC(=O)CNCCOCCN4CCN(CCNC(=O)[C@]5(Cc6cccc(Nc7nccs7)n6)CC[C@@H](Oc6cccc(Cl)c6F)CC5)CC4)cccc3C2=O)C(=O)N1 (stereo partly drawn) [UB-180810]
Response: < 10 nM

---

Reported DC50 values are given for each entry in this list.
tgt: PLK1 (Homo sapiens)
Construct: endogenous in cells
assay.info: Western blot, protein degradation (DC50)
Assay type: cell-based
measurement.conditions: 6 h; read-out: PLK1 DC50 (6 h)
Experimental: Cells were treated with the compound for a period of time, after that the cells were collected by centrifugation. After washing with PBS, the cells were lysed by adding RIPA buffer; the cell lysate were added to the loading buffer and then appropriate volume were taken and slowly added to the corresponding wells of the gel plate, and run the SDS-PAGE gel (4%-12%). […] The intensity of protein bands was analyzed quantitatively using ImageJ software.

Known DC50 results, listed for orientation:
O=C1CCC(N2Cc3c(NC(=O)CNCCOCCOCCOCCOCCNC(=O)[C@]4(Cc5cccc(Nc6nccs6)n5)CC[C@@H](Oc5cccc(Cl)c5F)CC4)cccc3C2=O)C(=O)N1 (some centres unmarked) [UB-180802]; < 10 nM
CC[C@@H]1C(=O)N(C)c2cnc(Nc3ccc(C(=O)NCCOCCOCCOCC(=O)N[C@H](C(=O)N4C[C@H](O)C[C@H]4C(=O)NCc4ccc(-c5scnc5C)cc4)C(C)(C)C)cc3OC)nc2N1Cc1ccc(Br)cc1 [UB-180601]; > 1000 nM
CC[C@@H]1C(=O)N(C)c2cnc(Nc3ccc(C(=O)NCCCNc4cccc5c4C(=O)N(C4CCC(=O)NC4=O)C5=O)cc3OC)nc2N1C1CCCC1 (some centres unmarked) [UB-180579]; 100 to 1000 nM

Request: # lookup: PLK1 (Homo sapiens) DC50, key = CC[C@@H]1C(=O)N(C)c2cnc(Nc3ccc(C(=O)NCCOCCOCCOCCNCCCC(=O)Nc4cccc5c4CN(C4CCC(=O)NC4=O)C5=O)cc3OC)nc2N1C1CCCC1 (some centres unmarked) [UB-180636]
Response: 10 to 100 nM

Request: State recorded DC50 with PLK1 (Homo sapiens), entry CC[C@@H]1C(=O)N(C)c2cnc(Nc3ccc(C(=O)NCCCNCCCCCCCC(=O)Nc4cccc5c4CN(C4CCC(=O)NC4=O)C5=O)cc3OC)nc2N1C1CCCC1 (some centres unmarked) [UB-180632] , no comment.
Response: < 10 nM
